Provenance of the data: PubChem BioAssay (NCATS)

- tested_on: Cytochrome P450 1A2 (Homo sapiens) (UniProt P05177)
- Sequence (P05177 whole entry, looked up): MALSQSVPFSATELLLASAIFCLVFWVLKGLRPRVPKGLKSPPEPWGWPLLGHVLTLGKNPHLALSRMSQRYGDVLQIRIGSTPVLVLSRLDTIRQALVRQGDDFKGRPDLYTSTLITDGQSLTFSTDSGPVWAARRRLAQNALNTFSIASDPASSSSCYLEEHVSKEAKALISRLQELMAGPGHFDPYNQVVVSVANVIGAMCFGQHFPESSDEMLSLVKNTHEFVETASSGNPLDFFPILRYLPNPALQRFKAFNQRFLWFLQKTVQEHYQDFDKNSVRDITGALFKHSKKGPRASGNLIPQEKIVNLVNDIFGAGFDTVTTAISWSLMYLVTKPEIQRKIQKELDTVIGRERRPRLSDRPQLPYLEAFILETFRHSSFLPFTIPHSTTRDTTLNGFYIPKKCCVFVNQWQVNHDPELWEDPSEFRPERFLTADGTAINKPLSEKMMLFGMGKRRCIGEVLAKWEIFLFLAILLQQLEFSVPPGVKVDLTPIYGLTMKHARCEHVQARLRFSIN
- assay_overview: p450-cyp1a2 (AID 410)
- assay_setup: recombinant CYP1A2, luciferin-ME demethylation, luminescence; series mostly up to 11.4 µM
Inconclusive results are not listed. Calls of active or inactive are those of the source. The call rests on the fitted dose curve.
Please reply with one of these outcomes: active, inactive

Worked examples, 5 compounds total:
{"structure": "C#C[C@H](N)CCC(=O)O", "assigned_category": "inactive"}
{"structure": "CCC(=O)Nc1ncnc2ncn(C(=O)CC)c12", "assigned_category": "inactive"}
{"structure": "O=C(O)CCC(=O)Nc1ccc2ccccc2c1", "assigned_category": "active"}
{"structure": "[N-]=[N+]=NC[C@@H]1O[C@@H](n2cnc3c(N)ncnc32)[C@@H]2O[C@@H]21", "assigned_category": "inactive"}
{"structure": "Cn1c(=O)c2[nH]c(CCC(=O)O)nc2n(C)c1=O", "assigned_category": "inactive"}

Request: Look up the recorded call for C#CCSc1n[nH]c(-c2ccco2)n1 in this test.
Result: active

Request: Look up the recorded call for Cc1c(C)c(C)c(CC2(C)CSC2)c(CC2(C)CSC2)c1C in this test.
Result: inactive

Request: Give the logged outcome of this assay for the following compound: NC(Cc1ccccc1)=NCC(=O)O
Result: inactive

Request: Just curious, what result did Clc1ccc(Cl)c(SCCCN2CCNCC2)c1 get here?
Result: active

Request: Which outcome did this test record for the compound O=C(O)[C@@H](O)c1ccc(F)cc1 ?
Result: inactive

Request: Could you check what this test reported for Cc1ccc(-[n+]2cc(=O)o[nH]2)cc1 ?
Result: active

Request: Given C[C@H]1CN(CCO)CCN1c1ccccc1 , state the outcome it received in this test.
Result: inactive

---

Measured activity change, negative = inhibition, listed per entry.
- assay_overview: NFAT Signaling Pathway (AID 444);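 further: carbachol stimulus at about its EC50 of 1 µM final; on the % scale 0 is the no-effect control and ±100 the full control effect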
- assay_setup: Jurkat NFAT-bla M1, carbachol, beta-lactamase ratio, 5 h; at 7.69 µM (top of the series) unless noted
Inconclusive results are not listed. Active and inactive are the calls of the source. The call rests on the fitted dose curve; in most records, active means well fitted curve in either direction with a large enough effect (not every such curve was filed as active); inconclusive means small, poorly fitted or top-dose-only effect, or another doubt; inactive means flat fitted curve, though single readings scatter.

Past entries and their recorded results:
{"compound": "Cc1cc(O)c(C(C)C)cc1CN1CCCCC1", "activity change, negative = inhibition": "-29.6% (inactive)"}
{"compound": "CNC[C@@H](SC)c1ccc(O)c(O)c1", "activity change, negative = inhibition": "7.41% (inactive)"}
{"compound": "Clc1ccc(CSC2=NCCN2)cc1Cl", "activity change, negative = inhibition": "-19.4% (inactive)"}
{"compound": "Cc1cc(CN2CCCCC2)c(O)c(CN2CCCCC2)c1", "activity change, negative = inhibition": "-21.4% (inactive)"}
{"compound": "Nc1nc(SCc2ccc([N+](=O)[O-])cc2)c2ncn([C@@H]3O[C@@H](CO)[C@@H](O)[C@H]3O)c2n1", "activity change, negative = inhibition": "0.367% [at 38 µM] (inactive)"}

Request: Supply recorded activity change, negative = inhibition for c1ccc(CCNCc2ccco2)nc1 here.
Result: -2.01% (inactive)

Request: Please report the measured activity change, negative = inhibition for O=c1cnc2cnc(Oc3ccccc3)nc2n1CCc1ccccc1
Result: -28.7% (inactive)

Request: Output activity change, negative = inhibition of C/C(=N/O)c1ccc2cc(Br)c3ccccc3c2c1
Result: 1.9% (inactive)

Request: Output activity change, negative = inhibition of O=C(O)/C(=C\c1ccccc1)c1ccccc1
Result: 1.44% (inactive)

Request: Give recorded activity change, negative = inhibition. Nc1c(S(=O)(=O)O)cc(S(=O)(=O)O)c2ccc(N=Nc3ccccc3)c(O)c12
Result: -3.14% (inactive)
